The reported numbers originate from ChEMBL document CHEMBL4819129.

Test system: HepG2
procedureDetails: Cytotoxicity against human HepG2 cells assessed as reduction in cell viability at 100 uM by MTT assay
Assay type: cell-based
settings: hepg2, 100 µM
valueKind: Activity

Consider the following illustrative entries.
[
  {
    "molecularString": "NC(=O)c1cnc(Cc2ccccc2)cc1OCCO",
    "Activity": "Non-Toxic"
  },
  {
    "molecularString": "CC(=O)O[C@@H](c1ccccc1)c1cc(=O)c(C(N)=O)cn1CCN(C)C",
    "Activity": "Non-Toxic"
  },
  {
    "molecularString": "CCOC(=O)COc1cc([C@@H](OC(C)=O)c2ccccc2)ncc1C(N)=O",
    "Activity": "Non-Toxic"
  },
  {
    "molecularString": "NC(=O)c1cn(CCO)c(-c2ccccc2)cc1=O",
    "Activity": "Non-Toxic"
  },
  {
    "molecularString": "CC(=O)O[C@@H](c1ccccc1)c1cc(OCCN(C)C)c(C(N)=O)cn1",
    "Activity": "Non-Toxic"
  }
]

Input line: I have this compound here, "CC(=O)O[C@@H](c1ccccc1)c1cc(OCCN2CCOCC2)c(C(N)=O)cn1" , and I need its recorded Activity.
Output line: Non-Toxic

Input line: I have this compound here, "CC(=O)O[C@@H](c1ccccc1)c1cc(OCCN2CCSCC2)c(C(N)=O)cn1" , and I need its recorded Activity.
Output line: Non-Toxic

----------
Tested on: HepG2
procedureDetails: Hypolipidemic activity in human HepG2 cells assessed as inhibition of oleic acid-induced lipid accumulation at 10 uM
Format: functional, cell-based
The source made the active and inactive calls. The rule behind the calls is not given here.
valueKind: Activity

Consider the following illustrative entries.
[
  {
    "molecularString": "CCOC(=O)COc1cc([C@@H](OC(C)=O)c2ccccc2)ncc1C(N)=O",
    "Activity": "Active"
  },
  {
    "molecularString": "CC(=O)O[C@H](c1ccccc1)c1cc(OCCO)c(C(N)=O)cn1",
    "Activity": "inactive"
  },
  {
    "molecularString": "CC(=O)O[C@@H](c1ccccc1)c1cc(OCc2cc(C(F)(F)F)cc(C(F)(F)F)c2)c(C(N)=O)cn1",
    "Activity": "inactive"
  },
  {
    "molecularString": "CC(=O)O[C@@H](c1ccccc1)c1cc(OCc2ccccc2)c(C(N)=O)cn1",
    "Activity": "inactive"
  },
  {
    "molecularString": "CC(=O)O[C@@H](c1ccccc1)c1cc(=O)c(C(=O)NC(=O)CC(C)C)cn1CCO",
    "Activity": "Active"
  },
  {
    "molecularString": "NC(=O)c1cnc([C@@H](O)c2ccccc2)cc1OCCO",
    "Activity": "inactive"
  },
  {
    "molecularString": "COCCn1cc(C(N)=O)c(=O)cc1[C@@H](OC(C)=O)c1ccccc1",
    "Activity": "inactive"
  },
  {
    "molecularString": "CC(=O)O[C@@H](c1ccccc1)c1cc(OCCO)c(C(N)=O)cn1",
    "Activity": "Active"
  }
]

Input line: # query: Activity | item "CC(=O)O[C@@H](c1ccccc1)c1cc(=O)c(C(N)=O)cn1Cc1ccccc1" | system: HepG2
Output line: inactive

Input line: # query: Activity | item "CC(=O)O[C@@H](c1ccccc1)c1cc(OCCN2CCSCC2)c(C(N)=O)cn1" | system: HepG2
Output line: Active

Input line: # query: Activity | item "CC(=O)O[C@@H](c1ccccc1)c1cc(OCCO)c(C(=O)N(C)C)cn1" | system: HepG2
Output line: inactive

Input line: # query: Activity | item "CC(C)CC(=O)O[C@@H](c1ccccc1)c1cc(=O)c(C(N)=O)cn1CCO" | system: HepG2
Output line: inactive
